- Tested on: CD2F1 mice, L1210 leukemia ip, survival T/C
- Procedure Summary: NCI In Vivo Anticancer Drug Screen. Data for tumor model L1210 Leukemia (intraperitoneal) in CD2F1 (CDF1) mice
- Measurement Parameters: endpoint: mean survival time; dose: 100.0 mg/kg/injection; schedule: Q01DX009 (ip); vehicle: Klucel (hydroxypropylcellulose) (HPC); higher = longer survival
Toxic doses and inconclusive results are not listed.
Reported T/C values are given for each entry in this list.

O=C(Nc1ncccn1)Nc1cc([N+](=O)[O-])ccc1F ... 96 % of control
CC(C(=O)O)N(C)N=O (stereo not given) ... 93 % of control

QUERY: What does the record list as T/C for COC(=O)C(CSCc1ccccc1)NC(=O)CCNC(=O)OCc1ccccc1 (stereo not given) ?
RESULT: 96 % of control

QUERY: Please answer likewise for Cc1cc(NC(=O)CCc2ccc(N)cc2)ccc1S(=O)(=O)F
RESULT: 108 % of control

QUERY: Please answer likewise for O=C(/C=C/c1ccc(Cl)c(Cl)c1)c1ccccc1
RESULT: 98 % of control
